Test: Multi-component pharmacokinetics of AAs in rats after oral administration of AF and HAF extracts (HPLC-MS/MS of plasma)
Set-up: species or system Sprague–Dawley (SD) rats
Details: Sprague-Dawley, rat, in vivo, 8 mg/kg, HAF extract, mid dose (8.0 mg/kg as AA I), analyte dose mg/kg: AA I 8.0, AA II 0.69, AA C 4.09, AA D 4.03, 7-OH AA I 6.62, n = 6
In this section we review reported Cmax values for a set of molecules.
Record the value in ng/mL, omitting the unit from your answer.

Form: molecule = COc1cccc2c1cc([N+](=O)[O-])c1c(C(=O)O)cc3c(c12)OCO3 [AA I] ; Cmax = 2000

The reported Cmax of the molecule O=C(O)c1cc2c(c3c1c([N+](=O)[O-])cc1ccccc13)OCO2 [AA II] was 412

The molecule identified as COc1c(O)ccc2c1cc([N+](=O)[O-])c1c(C(=O)O)cc3c(c12)OCO3 [7-OH AA I] registered its Cmax at 366

// COc1cc(O)cc2c1cc([N+](=O)[O-])c1c(C(=O)O)cc3c(c12)OCO3 [AA D] : Cmax value = 89.2

* * *

Below, each entry is listed alongside its reported Cmax.
Test: Multi-component pharmacokinetics of AAs in rats after oral administration of AF and HAF extracts (HPLC-MS/MS of plasma)
Design: species or system Sprague–Dawley (SD) rats
Settings: Sprague-Dawley, rat, in vivo, 3 mg/kg, AF extract, low dose (3.0 mg/kg as AA I), analyte dose mg/kg: AA I 3.0, AA II 0.21, AA C 1.42, AA D 1.60, 7-OH AA I 2.33, n = 6
Provide the reading as a plain figure in ng/mL.

Examples with answers:
{"columns": ["structure_string", "Cmax (ng/mL)"],
 "data": [
  ["COc1cccc2c1cc([N+](=O)[O-])c1c(C(=O)O)cc3c(c12)OCO3", 1700],
  ["O=C(O)c1cc2c(c3c1c([N+](=O)[O-])cc1ccccc13)OCO2", 590],
  ["COc1c(O)ccc2c1cc([N+](=O)[O-])c1c(C(=O)O)cc3c(c12)OCO3", 214]
]}

Turning to the following molecule.
Recorded result, `COc1cc(O)cc2c1cc([N+](=O)[O-])c1c(C(=O)O)cc3c(c12)OCO3` , Cmax: 78.5

* * *

Property: half-life; scope: individual molecules
Assay: Multi-component pharmacokinetics of AAs in rats after oral administration of AF and HAF extracts (HPLC-MS/MS of plasma)
Set-up: species or system Sprague–Dawley (SD) rats
Details: Sprague-Dawley, rat, in vivo, 3 mg/kg, HAF extract, low dose (3.0 mg/kg as AA I), analyte dose mg/kg: AA I 3.0, AA II 0.26, AA C 1.53, AA D 1.51, 7-OH AA I 2.48, n = 6, read-out: t 1/2z (converted)
Note: unit min is implicit; provide only the numeric part.

Here is how some molecules turned out for half-life.
{"columns": ["structure_string", "half-life [min]"],
 "data": [
  ["COc1cccc2c1cc([N+](=O)[O-])c1c(C(=O)O)cc3c(c12)OCO3", 193],
  ["O=C(O)c1cc2c(c3c1c([N+](=O)[O-])cc1ccccc13)OCO2", 296],
  ["COc1cc(O)cc2c1cc([N+](=O)[O-])c1c(C(=O)O)cc3c(c12)OCO3", 123]
]}

For the next question, use this molecule.
So for `COc1c(O)ccc2c1cc([N+](=O)[O-])c1c(C(=O)O)cc3c(c12)OCO3` , the logged half-life turned out to be 165
